Exercise: for every item that follows, state its recorded IC50, INSL3 (EC80)-stimulated cAMP in HEK293 stably expressing rat RXFP2.
target: rat relaxin family peptide receptor 2 (RXFP2) (rat) (UniProt Q5ECL0)
Sequence (Q5ECL0 entry or part of it): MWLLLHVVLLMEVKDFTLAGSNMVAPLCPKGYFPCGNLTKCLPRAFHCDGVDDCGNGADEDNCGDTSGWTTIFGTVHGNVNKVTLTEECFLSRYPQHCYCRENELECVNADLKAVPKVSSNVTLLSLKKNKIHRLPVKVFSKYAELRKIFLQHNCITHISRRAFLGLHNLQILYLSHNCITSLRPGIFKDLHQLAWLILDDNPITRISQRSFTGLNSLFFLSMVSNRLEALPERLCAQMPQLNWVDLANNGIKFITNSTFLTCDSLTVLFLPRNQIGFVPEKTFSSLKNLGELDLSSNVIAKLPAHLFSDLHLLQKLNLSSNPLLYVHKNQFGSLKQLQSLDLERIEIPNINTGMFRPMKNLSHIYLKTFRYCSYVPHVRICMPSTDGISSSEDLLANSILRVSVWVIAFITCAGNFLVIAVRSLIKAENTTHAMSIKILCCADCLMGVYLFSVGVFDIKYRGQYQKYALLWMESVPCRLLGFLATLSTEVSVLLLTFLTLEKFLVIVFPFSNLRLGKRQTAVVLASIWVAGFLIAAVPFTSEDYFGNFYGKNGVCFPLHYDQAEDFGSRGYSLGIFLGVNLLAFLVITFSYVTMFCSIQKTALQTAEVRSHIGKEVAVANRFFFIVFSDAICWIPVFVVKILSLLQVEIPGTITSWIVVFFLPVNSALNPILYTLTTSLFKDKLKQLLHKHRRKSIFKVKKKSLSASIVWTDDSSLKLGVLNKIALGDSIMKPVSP

These solved cases illustrate the format of a correct answer.
| binder | test.result |
| --- | --- |
| RXFP2 mAb 3F1 (antibody, V domains shown) VH: QVQLKESGPGLVAPSQSLSITCTVSGFSLTDYGVSWIRQPPGKGLEWLGVIWGGGSTDYNPALKSRLSISKDNSKSQVFLKMNSLQADDTAMYYCVKHEGYYAMDYWGQGTSVTVSS VL: DIQMTQSPASLSVSVGETVTITCRASENIYSNLAWYQQKQGKSPHLLVYAVTNLADGVPSRFSGSGSGTQYSLKINSLQSEDFGSYYCQHFWGTPYTFGGGTKLEIK | 19.9 nM |
| RXFP2 mAb 1G1 (antibody, V domains shown) VH: EVQLQQSGPELVKPGASVKMSCKASGYTFTDYNMHWVKQKPGQGLEWIGYINPYNDGTEYNEKFKGKATLTSDKSSSTAYMDLSSLTSEDSAVYYCARGLWFAMNYWGQGTSVTVSS VL: DIQMTQSSSSFSVSLGDRVTITCKASEDIYNRLAWYQQKPGNTPRLLISGATILETGVPSRFSGSGSGKDYTLSIISLQTEDVATYYCQQYWIIPPTFGGGTKLEIK | 28 nM |
| RXFP2 mAb 1F2 (antibody, V domains shown) VH: QVQLKQSGPGLVQPSQSLSITCTVSGFSLTAYGVNWVRQSPGKGLEWLGVIWSGGNTDYNAPFISRLSITKDNSKSQVFFKMNSLEADDTAIYYCARAKGYYAMDYWGQGTSVTVSS VL: DIQMTQSPASLSVSVGESVTITCRATENIYSNLVWYQQKQGQSPQLLVYAVTSLADGVPSRFSGSGSGTQYSLKINSLQSEDFGTYYCQHFWGTPYTFGGGTKLEIK | 19.1 nM |
| RXFP2 mAb 4H2 (antibody, V domains shown) VH: QVQLRQSGPSLVQPSQSLSITCTVSGFSLTNYGVHWVRQSPGKGLEWLGVIWRGGNTDHNAAFMSRLSITKDNSESQVFFKMNSLQVDDTAIYYCAKAEGYYALDYWGQGTSVTVYS VL: DIQMTQSPASLSVSVGETVTITCRASENIYSNLAWYQQKQGKSPQLLVYAVTNLADGVPSRFSGSGSGTQYSLKINSLQSEDFGSYYCQHFWGTPWTFGGGTKLEIK | 18.9 nM |

Alright, here's another binder for you.
Input: Could you share which IC50, INSL3 (EC80)-stimulated cAMP in HEK293 stably expressing rat RXFP2 value was measured for RXFP2 mAb 4F6 (antibody, V domains shown) VH: EVQLQQSGPELVKPGASVKMSCKASGYTFTNYVLHWVKQKPGQGLEWIGYINPYNDGSKYNEKFKGRATLTSDKSSSTAYMELSSLTSEDSAVYYCARGGWLLDYFDYWGQGTTLTVSS VL: DVLMTQSPLSLPVSLGEQASISCRSSQSIVHSDGDTYLEWYLQKPGQSPNLLIYKVSNRFSGVPDRFSGSGSGTDFTLKISRVEAEDLGVYYCFQGSHVPPTFGGGTKLEIK ?
Output: 48.5 nM

The origin of these recorded values is paper PMC11162469.
